- System: LG0703-F948-PDC complex spheroid viability
- Experiment Description: Anticancer human tumor LG0703-F948-PDC patient-derived lung adenocarcinoma cell line growth inhibition [RAS]
- Assay Setup: second compound 0.316 µM; first compound 0.0316 µM; hits give low values
Measurement Label: viability, T/C (%)
State the answer as a number, implicitly in %.

Example results:
Molecule	Tested System	Test Result
NC1c2ccccc2OC12CCN(c1cnc3c(N4CCCc5ncccc54)n[nH]c3n1)CC2 (stereo not drawn) + C#Cc1c(F)ccc2cc(O)cc(-c3ncc4c(N5CC6CCC(C5)N6)nc(OCC56CCCN5CC(F)C6)nc4c3F)c12	LG0703-F948-PDC complex spheroid viability	43.7
O=C(c1ccc(F)c(F)c1Nc1ccc(I)cc1F)N1CC(O)([C@@H]2CCCCN2)C1 + C=CC(=O)N1CCN(c2nc(OCC3CCCN3C)nc3c(F)c(-c4nc(N)cc(C)c4C(F)(F)F)c(Cl)cc23)C(C)C1	LG0703-F948-PDC complex spheroid viability	52.8

// below: viability, T/C requested for another molecule
Just so you know, measured viability, T/C for CC(=O)OC12COC1CC(O)C1(C)C(=O)C(O)C3=C(C)C(OC(=O)C(O)C(NC(=O)OC(C)(C)C)c4ccccc4)CC(O)(C(OC(=O)c4ccccc4)C21)C3(C)C (stereo not drawn) + C=CC(=O)N1CCN(c2nc(OCC3CCCN3C)nc3c(F)c(-c4nc(N)cc(C)c4C(F)(F)F)c(Cl)cc23)C(C)C1 came out at 24.9

###

- System: LG0703-F948-PDC complex spheroid viability
- Experiment Description: Anticancer human tumor LG0703-F948-PDC cell line growth inhibition [RAS];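 also: spheroids exposed to agents for 7 days; 100% = DMSO vehicle wells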
- Assay Setup: second compound 0.000949 µM; first compound 0.03 µM; hits give low values
Measurement Label: viability, T/C (%)
Reply with just the number (in %).

Sample answers from the record:
Molecule	U	Test Result
CCc1c2c(nc3ccc(O)cc13)-c1cc3c(c(=O)n1C2)COC(=O)[C@]3(O)CC + CCn1c(-c2cccnc2C(C)OC)c2c3cc(ccc31)N1CCOC(CC(NC(=O)C(C(C)C)N(C)C(=O)C3(F)CCN(C(=O)C#CC(C)(C)N(C)C)CC3)C(=O)N3CCCC(N3)C(=O)OCC(C)(C)C2)C1	%	66
CCc1c2c(nc3ccc(O)cc13)-c1cc3c(c(=O)n1C2)COC(=O)[C@]3(O)CC + CCn1c(-c2cc(N3CCN(C)CC3)cnc2C(C)OC)c2c3cc(ccc31)-c1csc(n1)CC(NC(=O)C1CC1C)C(=O)N1CCCC(N1)C(=O)OCC(C)(C)C2	%	62
CC1(C)CCC(Nc2ncc(C(F)(F)F)c(-c3c[nH]c4c(P(C)(C)=O)c(C#N)ccc34)n2)CN1 (centres undefined) + CCn1c(-c2cc(N3CCN(C)CC3)cnc2C(C)OC)c2c3cc(ccc31)-c1csc(n1)CC(NC(=O)C1CC1C)C(=O)N1CCCC(N1)C(=O)OCC(C)(C)C2	%	64.2

Now, please, on to the next molecule.
Lab note: measured viability, T/C of CC1(C)CCC(Nc2ncc(C(F)(F)F)c(-c3c[nH]c4c(P(C)(C)=O)c(C#N)ccc34)n2)CN1 (centres undefined) + CCn1c(-c2cccnc2C(C)OC)c2c3cc(ccc31)N1CCOC(CC(NC(=O)C(C(C)C)N(C)C(=O)C3(F)CCN(C(=O)C#CC(C)(C)N(C)C)CC3)C(=O)N3CCCC(N3)C(=O)OCC(C)(C)C2)C1 was 60.1
